Test: yeast display, Sf9 membrane polyspecificity reagent, FACS + sequencing; frameworks hold sequencing errors
reported.metric: polyreactivity (PSR sort gate)

Some solved entries appear below for comparison.
>>> result("QVQLVESGGGLVQARGSLRLSCASSGSTFGGYAMGWYRQAPGKERELVPAITRSGGSTYYADSVKGRFTISRDNGKNTVYLQMNSLKPEDTAVYYCAARVPRGDRPGYHYAYYYWGQGTQVTVSS")
"high polyreactivity"
>>> result("QVQLVESGGGLVQARGSLRLSCAASGSTFYYNTMGWYRQAPGKERELVAAITSSGGRTYYADSVKGRFTISRDNAKNTVYLQMNSLKPEDTAVYYCAAKRVGSTANRRVTKYDWGQGTQVTVSS")
"high polyreactivity"
>>> result("QVQLVESGEGLVQAGGSLRLSCAASRRIFEYYFMGWYSQAPGKERELVAAMNRRGTSTYYADSVKGRFTISRDNAKNTVYLQMNSLKPEDTAVYYCAAVDRDYARTTTYDYWGQGTEVTVSS")
"high polyreactivity"
>>> result("QVQLVESWGGLVQAGGSLRLSCAASGSNFYTYAMGWYRQAPGKERDFVAAITWSGGRTYYADSVKGRFTISRDNAKNSVYLQMNSLKPEDTAVYYCAATSWWATTGFDYWGQGTQVTVSS")
"low polyreactivity"

Give polyreactivity (PSR sort gate) for each listed item.
1. QVQLVESGGGLVQAGGSLRLSCAASGRTFHYYAMGWYRQAPGKERELVAAITSSGGSTYYADSVKGRFTISRDNANNTVYLQMNSLKPEDTAVYYFNAYSSYIKYDYWGQGTQVTVSS
2. QVQLVESGGGLVQAGGSLRLSCAASGRIIGTNARGWYRQAPGNERELVASISSRSTRTYYADSVKGRFTISRDNAKNTVYLQMNSLKPEDTAVYYCAARYPYYVHYDYWGQGTQVTVSS
3. QVQLVESGGGLVQAGGSLRLSCAASGITFYPNGMGWYRQAPGKEREFVAAITSSGGSTYYADSVKGRFRISRDNAKNTLYLQMNSLKPEDTAVYYCAAQYYPISYYGYGYWGQGTQVTVSS
4. QVQLVESGGGLVQAGGSLRLSCAASGSIFGANTMGWYRQAPWKERELVAGITSRARTYYADSVKGRFTISRDNAKNTVYLQMNSLKPEDTAVYYCAAKYAWRRYGYWGQGTQVTVSS
5. QVQLVESGGGLVQAGGSLRLSCAASGRIFYGNVMGWYRQAPGKERELVAAISGGGSTNYADSVKGRFTISRDNAKNTVYLQMNSLKPEDTAVFYCAADSRPWGSSMDYWGQGTKVTVSS

1: high polyreactivity; 2: high polyreactivity; 3: low polyreactivity; 4: high polyreactivity; 5: low polyreactivity

I have 2 sequences here; please give me polyreactivity (PSR sort gate) for each one.
1. QVQLVESAGCLVQAGASLRLSCAASGRIISRNAMGWYRQAPGKERELVAAITWRGGSTYYADSVKGRFTISRDNAKNTVYLQMNSLKPEDTAVYYCNRDYRQYGYAYSGRYYWGQGTQVTVSS
2. QVQLVESGGGLVQAGGSLRLSCAASGFTFQYYAMGWYRQAPGKERELVAAISRSGGSTYYADSVKGRFTISRDNAKNTVYLQMNSLKPEDTAVYYCNAGRYASGKYDYWGQGTQVTVSS

1. high polyreactivity
2. high polyreactivity

src = the nanobody polyreactivity screen of Harvey et al. (2022)
